Provenance of the data: paper PMC12735773

ASSAY TARGET: NaV1.8 (Rattus norvegicus, UniProt Q62968)
Sequence (Q62968 whole entry): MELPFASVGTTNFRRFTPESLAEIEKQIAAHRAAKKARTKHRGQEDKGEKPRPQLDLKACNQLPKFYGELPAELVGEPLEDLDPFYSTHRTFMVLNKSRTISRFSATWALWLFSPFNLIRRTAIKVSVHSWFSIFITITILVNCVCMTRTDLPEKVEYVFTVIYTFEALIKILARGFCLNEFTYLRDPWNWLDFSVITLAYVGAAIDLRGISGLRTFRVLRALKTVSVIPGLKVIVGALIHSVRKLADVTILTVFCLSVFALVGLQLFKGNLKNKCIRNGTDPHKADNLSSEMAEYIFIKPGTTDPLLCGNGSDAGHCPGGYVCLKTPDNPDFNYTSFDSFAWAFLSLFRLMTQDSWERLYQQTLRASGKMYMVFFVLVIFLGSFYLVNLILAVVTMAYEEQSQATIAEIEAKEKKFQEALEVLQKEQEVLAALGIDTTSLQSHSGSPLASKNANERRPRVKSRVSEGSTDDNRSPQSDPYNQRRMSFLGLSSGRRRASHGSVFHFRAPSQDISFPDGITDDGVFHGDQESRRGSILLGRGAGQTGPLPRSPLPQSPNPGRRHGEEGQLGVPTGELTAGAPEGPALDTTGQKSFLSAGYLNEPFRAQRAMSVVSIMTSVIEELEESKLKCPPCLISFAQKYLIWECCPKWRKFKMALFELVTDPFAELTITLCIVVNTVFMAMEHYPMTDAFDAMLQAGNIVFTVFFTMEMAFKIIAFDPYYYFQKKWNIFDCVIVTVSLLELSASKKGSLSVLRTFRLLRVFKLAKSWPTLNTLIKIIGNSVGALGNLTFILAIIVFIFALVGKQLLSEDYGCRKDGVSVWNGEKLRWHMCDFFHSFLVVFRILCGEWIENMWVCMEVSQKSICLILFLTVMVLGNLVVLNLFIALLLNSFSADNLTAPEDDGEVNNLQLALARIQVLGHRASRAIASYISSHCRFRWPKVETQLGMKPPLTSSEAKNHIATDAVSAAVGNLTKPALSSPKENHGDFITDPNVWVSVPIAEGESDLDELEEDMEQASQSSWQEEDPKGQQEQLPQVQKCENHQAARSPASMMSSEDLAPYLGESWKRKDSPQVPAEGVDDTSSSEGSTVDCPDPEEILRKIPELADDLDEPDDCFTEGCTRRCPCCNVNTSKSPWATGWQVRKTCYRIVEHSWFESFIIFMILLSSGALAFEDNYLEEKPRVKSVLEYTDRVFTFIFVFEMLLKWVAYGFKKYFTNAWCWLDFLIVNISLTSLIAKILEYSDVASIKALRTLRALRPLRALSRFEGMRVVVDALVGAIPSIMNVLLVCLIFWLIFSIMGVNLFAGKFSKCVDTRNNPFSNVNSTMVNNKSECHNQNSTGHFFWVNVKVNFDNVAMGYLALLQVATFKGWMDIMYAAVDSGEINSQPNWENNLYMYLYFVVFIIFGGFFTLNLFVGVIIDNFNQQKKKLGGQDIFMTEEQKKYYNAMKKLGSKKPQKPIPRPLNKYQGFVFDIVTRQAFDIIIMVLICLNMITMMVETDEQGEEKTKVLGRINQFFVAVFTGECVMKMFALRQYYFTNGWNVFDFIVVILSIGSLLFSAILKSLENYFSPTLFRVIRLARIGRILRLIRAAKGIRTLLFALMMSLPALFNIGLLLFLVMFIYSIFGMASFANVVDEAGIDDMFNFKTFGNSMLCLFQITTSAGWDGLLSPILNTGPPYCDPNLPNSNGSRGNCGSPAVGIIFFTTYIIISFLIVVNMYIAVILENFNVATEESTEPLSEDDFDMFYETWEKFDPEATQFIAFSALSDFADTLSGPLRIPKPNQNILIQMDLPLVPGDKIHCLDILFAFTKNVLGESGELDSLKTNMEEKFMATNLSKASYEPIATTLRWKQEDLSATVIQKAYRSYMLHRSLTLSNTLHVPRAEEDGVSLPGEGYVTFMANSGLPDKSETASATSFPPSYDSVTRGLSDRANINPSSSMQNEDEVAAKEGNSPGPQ
READOUT LABEL: pKd
// scale note: pKd = -log10(conc_M); give the bare number

[ask] Which pKd is reported with NaV1.8 (Rattus norvegicus, UniProt Q62968) for this entry: "COc1c([C@H]2[C@H](C(=O)Nc3ccnc(C(N)=O)c3)O[C@@](C)(C(F)(F)F)[C@H]2C)ccc(F)c1F" ?
[reply] 10.00
